Give measured IC50 for each item. Keep answers brief.
# Assay Target: Delta-type opioid receptor (Mus musculus)
# Sequence (P32300 whole entry): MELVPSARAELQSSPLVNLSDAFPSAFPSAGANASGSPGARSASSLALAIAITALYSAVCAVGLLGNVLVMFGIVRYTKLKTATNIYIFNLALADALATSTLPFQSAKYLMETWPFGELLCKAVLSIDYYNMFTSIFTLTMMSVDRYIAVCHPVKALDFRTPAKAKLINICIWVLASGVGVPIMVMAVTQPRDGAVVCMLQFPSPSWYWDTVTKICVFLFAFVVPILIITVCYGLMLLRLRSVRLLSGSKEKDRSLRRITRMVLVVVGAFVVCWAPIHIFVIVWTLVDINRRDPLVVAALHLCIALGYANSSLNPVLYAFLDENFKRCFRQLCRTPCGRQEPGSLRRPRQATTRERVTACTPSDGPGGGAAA
# Assay Summary: Inhibitory activity against delta-opioid receptor in mouse vas deferens preparation using DADLE
Please state the figure in nM; there is no need to write the unit.

*Q* Query: IC50; subject: Cn1c2c(c3c1[C@@H]1Oc4c(O)ccc5c4[C@@]14CCN(CC1CC1)[C@H](C5)[C@]4(O)C3)C[C@H]1CN(C(=O)OCc3ccccc3)CC[C@@H]1C2
*A* 9.2

*Q* Query: IC50; subject: Cn1c2c(c3c1[C@@H]1Oc4c(O)ccc5c4[C@@]14CCN(CC1CC1)[C@H](C5)[C@]4(O)C3)C[C@H]1CNCC[C@@H]1C2
*A* 1.1
